Ref: ChEMBL document CHEMBL4706579

- System under test: Transcriptional regulator MvfR (Pseudomonas aeruginosa PA14)
- Sequence (A0A072ZLE6 whole entry, the tested form may be a part): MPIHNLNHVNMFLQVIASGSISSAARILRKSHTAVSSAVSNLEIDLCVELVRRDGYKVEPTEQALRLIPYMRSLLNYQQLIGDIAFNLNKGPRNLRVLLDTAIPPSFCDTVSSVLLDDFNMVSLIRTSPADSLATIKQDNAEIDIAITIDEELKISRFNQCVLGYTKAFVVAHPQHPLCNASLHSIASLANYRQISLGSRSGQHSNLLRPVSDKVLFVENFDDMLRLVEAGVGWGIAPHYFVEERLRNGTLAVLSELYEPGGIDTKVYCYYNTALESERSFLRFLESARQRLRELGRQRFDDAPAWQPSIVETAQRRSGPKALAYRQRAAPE
- Assay info: Inhibition of PqsR in Pseudomonas aeruginosa PAO1 L harboring mCTX:PpqsA-lux fusion protein measured every 30 mins for 24 hrs by luminescence reporter gene assay
Readout name: IC50
Number plus unit, in that order.

Study these solved cases before continuing.
Compound	Result
O=c1c2cc(Cl)ccc2ncn1Cc1csc(-c2ccccc2)n1	0.244 µM
CCCC(C)c1nc(Cn2cnc3ccc(Cl)cc3c2=O)cs1 (stereo not given)	1.11 µM
CC(C)(C)c1nc(Cn2cnc3ccc(Cl)cc3c2=O)cs1	0.397 µM
CC(C)c1nc(Cn2cnc3ccc(Cl)cc3c2=O)cs1	1.05 µM
CCCCCCc1nc(Cn2cnc3ccc(Cl)cc3c2=O)cs1	0.298 µM
CCC(C)Cc1nc(Cn2cnc3ccc(Cl)cc3c2=O)cs1 (stereo not given)	1.57 µM

Batch: IC50 for all items listed.
1. CC(C)(C)c1nc(Cn2cnc3cc(Cl)ccc3c2=O)cs1
2. CC(C)Cc1nc(Cn2cnc3ccc(Cl)cc3c2=O)cs1
3. CC(C)CCc1nc(Cn2cnc3ccc(Cl)cc3c2=O)cs1
4. CCCCCc1nc(Cn2cnc3ccc(Cl)cc3c2=O)cs1

1. 2.94 µM
2. 1.22 µM
3. 1.36 µM
4. 0.313 µM

Batch: IC50 for all items listed.
1. CC(C)c1nc(Cn2cnc3cc(F)ccc3c2=O)cs1
2. O=c1c2cc(Cl)ccc2ncn1Cc1csc(-c2ccco2)n1

1: 13.2 µM; 2: 1.33 µM

Batch: IC50 for all items listed.
1. CCCCNc1nc(Cn2cnc3ccc(Cl)cc3c2=O)cs1
2. O=c1c2cc(Cl)ccc2ncn1Cc1csc(/C=C/c2ccco2)n1

3.54 µM
2.05 µM

Given `CCCCc1nc(Cn2cnc3ccc(Cl)cc3c2=O)cs1` , respond with its IC50.
1.56 µM
